Assign Activity to each entry below.
test system: HT-29; experiment: Induction of cell cycle arrest in human HT-29 cells assessed as accumulation at S phase by propidium iodide staining based flow cytometry (reference value: 23.9 +/- 0.3%); format: functional
Answers are plain numbers, in %.

Please review the following examples before continuing.
chemical_structure=CN(C)c1ccc(/C=C2\S/C(=N\c3csc(-c4ccc(Cl)cc4)c3)NC2=O)cc1 unit_symbol=% recorded_measurement=14.8
chemical_structure=COc1ccc(/C=C2\S/C(=N\c3csc(-c4ccc(Cl)cc4)c3)NC2=O)cc1OC unit_symbol=% recorded_measurement=11.3
chemical_structure=COc1ccc(/C=C2\S/C(=N\c3csc(-c4ccc(Cl)cc4)c3)NC2=O)cc1 unit_symbol=% recorded_measurement=18.2

Now consider the entry below.
Give Activity; test system HT-29; compound Cc1ccc(/C=C2\S/C(=N\c3csc(-c4ccc(Cl)cc4)c3)NC2=O)cc1
14.8

* * *

tested on: SW-620; test: Cytotoxicity against human SW620 cells after 72 hrs by MTT assay; format: functional, cell-based; conditions: SW-620, 72 h
pIC50: −log10 of the molar value.
Experimental Readout: pIC50

chemical_structure=COc1ccc(/C=C2\S/C(=N\c3csc(-c4ccc(Cl)cc4)c3)NC2=O)cc1OC experimental_readout=pIC50 recorded_measurement="< 4.30"
chemical_structure=Cc1ccc(/C=C2\S/C(=N\c3nc(-c4ccc(Cl)cc4)cs3)NC2=O)cc1 experimental_readout=pIC50 recorded_measurement=6.05
chemical_structure=COc1ccc(-c2cc(/N=C3/NC(=O)CS3)cs2)cc1 experimental_readout=pIC50 recorded_measurement="< 4.30"
chemical_structure=CN(C)c1ccc(/C=C2\S/C(=N\c3nc(-c4ccc(Cl)cc4)cs3)NC2=O)cc1 experimental_readout=pIC50 recorded_measurement=6.70
chemical_structure=COc1cccc(N2C(=O)CS/C2=N\c2csc(-c3ccc(Cl)cc3)c2)c1 experimental_readout=pIC50 recorded_measurement=4.48
chemical_structure=O=C1N/C(=N/c2csc(-c3ccc(Cl)cc3)c2)S/C1=C\c1ccc2ccccc2c1 experimental_readout=pIC50 recorded_measurement="< 4.30"
chemical_structure=Cc1ccc(N2C(=O)CS/C2=N\c2csc(-c3ccc(Cl)cc3)c2)cc1 experimental_readout=pIC50 recorded_measurement="< 4.30"
chemical_structure=O=C1CS/C(=N\c2nc(-c3ccc(Cl)cc3)cs2)N1 experimental_readout=pIC50 recorded_measurement="< 4.30"

Now consider the entry below.
Give the reported value of pIC50 for this record: O=C1N/C(=N/c2nc(-c3ccc(Cl)cc3)cs2)S/C1=C\c1ccc(F)cc1
< 4.30

* * *

system: HT-29; assay: Induction of redox status changes in human HT-29 cells assessed as ROS content in presence of 1 mM ascorbic acid by DCF-DA staining based fluorescence assay (reference value: 65.7 +/- 4.7%)
Experimental Readout: Activity (%)
Answers are plain numbers, in %.

Please review the following examples before continuing.
chemical_structure=COc1ccc(/C=C2\S/C(=N\c3csc(-c4ccc(Cl)cc4)c3)NC2=O)cc1 recorded_measurement=97
chemical_structure=Cc1ccc(/C=C2\S/C(=N\c3csc(-c4ccc(Cl)cc4)c3)NC2=O)cc1 recorded_measurement=102.5
chemical_structure=COc1ccc(/C=C2\S/C(=N\c3csc(-c4ccc(Cl)cc4)c3)NC2=O)cc1OC recorded_measurement=112.1

Now consider the entry below.
Give the reported value of Activity for this record: CN(C)c1ccc(/C=C2\S/C(=N\c3csc(-c4ccc(Cl)cc4)c3)NC2=O)cc1
133.6

* * *

Assign IC50 to each entry below.
test system: HT-29; assay: Cytotoxicity against human HT-29 cells after 72 hrs by MTT assay; type: functional, cell-based; conditions: HT-29, 72 h
Numbers only, in µM.

chemical_structure=CCCCCC/C=C1\S/C(=N\c2csc(-c3ccc(Cl)cc3)c2)NC1=O experimental_readout=IC50 unit_symbol=µM recorded_measurement=33.5
chemical_structure=COc1ccc(/C=C2\S/C(=N\c3csc(-c4ccc(Cl)cc4)c3)NC2=O)cc1OC experimental_readout=IC50 unit_symbol=µM recorded_measurement=10.9
chemical_structure=COc1ccc(N2C(=O)CS/C2=N\c2csc(-c3ccc(Cl)cc3)c2)cc1OC experimental_readout=IC50 unit_symbol=µM recorded_measurement=14.1
chemical_structure=O=C1N/C(=N/c2nc(-c3ccc(Cl)cc3)cs2)S/C1=C\c1ccc(F)cc1 experimental_readout=IC50 unit_symbol=µM recorded_measurement=2.9

Now consider the entry below.
Give the reported value of IC50 for this record: O=C1CS/C(=N\c2csc(-c3ccc(Cl)cc3)c2)N1c1ccccc1
41.4

* * *

test system: HT-29; assay: Inhibition of cell growth in human HT-29 cells assessed as mitotic index ratio in presence of 1 mM ascorbic acid (reference value: 1.12 +/- 0.03); format: functional
Assign Ratio to each entry below.
Give bare numbers.

Please review the following examples before continuing.
chemical_structure=CN(C)c1ccc(/C=C2\S/C(=N\c3csc(-c4ccc(Cl)cc4)c3)NC2=O)cc1 experimental_readout=Ratio recorded_measurement=0.02
chemical_structure=COc1ccc(/C=C2\S/C(=N\c3csc(-c4ccc(Cl)cc4)c3)NC2=O)cc1OC experimental_readout=Ratio recorded_measurement=0.04

Provide each entry's Ratio from the list below.
1. COc1ccc(/C=C2\S/C(=N\c3csc(-c4ccc(Cl)cc4)c3)NC2=O)cc1
2. Cc1ccc(/C=C2\S/C(=N\c3csc(-c4ccc(Cl)cc4)c3)NC2=O)cc1

0.03
0.02

* * *

tested on: SW-620; experiment: Cytotoxicity against human SW620 cells after 72 hrs by MTT assay; assay type: functional, cell-based; conditions: SW-620, 72 h
pIC50: −log10 of the molar value.
Label scheme for pIC50: lower than 5 is false (0), 5 and above is true (1).

chemical_structure=Cc1ccc(-c2cc(/N=C3/NC(=O)CS3)cs2)cc1 cat="false (0)"

Reported pIC50 at or above 5? O=C1N/C(=N/c2csc(-c3ccc(Cl)cc3)c2)S/C1=C\c1ccccn1
false (0)

Reported pIC50 at or above 5? O=C1CS/C(=N\c2csc(-c3ccccc3)c2)N1
false (0)

* * *

Assign growth inhibition (GI) to each entry below.
test system: HT-29; assay: Growth inhibition of human HT-29 cells at cytotoxic IC50 level after 3 days by trypan blue dye exclusion assay; type: functional
Give bare numbers, in %.

Please review the following examples before continuing.
chemical_structure=O=C1N/C(=N/c2csc(-c3ccc(Cl)cc3)c2)S/C1=C\c1ccc(F)cc1 measurement_target=HT-29 recorded_measurement=25
chemical_structure=O=C1N/C(=N/c2csc(-c3ccc(Cl)cc3)c2)S/C1=C\c1ccc(Cl)cc1 measurement_target=HT-29 recorded_measurement=25
chemical_structure=Cc1ccc(/C=C2\S/C(=N\c3csc(-c4ccc(Cl)cc4)c3)NC2=O)cc1 measurement_target=HT-29 recorded_measurement=90

Now consider the entry below.
Give the reported value of growth inhibition (GI) for this record: O=C1N/C(=N/c2csc(-c3ccc(Cl)cc3)c2)S/C1=C\c1ccccn1
40

* * *

system: HT-29; test: Growth inhibition of human HT-29 cells at cytotoxic IC50 level after 3 days by trypan blue dye exclusion assay; assay type: functional
Experimental Readout: growth inhibition (GI)

chemical_structure=COc1ccc(/C=C2\S/C(=N\c3nc(-c4ccc(Cl)cc4)cs3)NC2=O)cc1 recorded_measurement=<25%

Provide each entry's growth inhibition (GI) from the list below.
1. CN(C)c1ccc(/C=C2\S/C(=N\c3nc(-c4ccc(Cl)cc4)cs3)NC2=O)cc1
2. O=C1N/C(=N/c2nc(-c3ccc(Cl)cc3)cs2)S/C1=C\c1ccc2ccccc2c1

["<25%", "<25%"]

* * *

tested on: SW-620; assay: Cytotoxicity against human SW620 cells after 72 hrs by MTT assay; assay type: functional, cell-based; conditions: SW-620, 72 h
Experimental Readout: IC50 (µM)
One number for each entry, in µM.

Please review the following examples before continuing.
chemical_structure=Cc1ccc(/C=C2\S/C(=N\c3csc(-c4ccc(Cl)cc4)c3)NC2=O)cc1 recorded_measurement=1.5
chemical_structure=O=C1N/C(=N/c2csc(-c3ccc(Cl)cc3)c2)S/C1=C\c1ccc(F)cc1 recorded_measurement=8.7
chemical_structure=COc1ccc(/C=C2\S/C(=N\c3csc(-c4ccc(Cl)cc4)c3)NC2=O)cc1 recorded_measurement=28.1
chemical_structure=O=C1CS/C(=N\c2csc(-c3ccc(Cl)cc3)c2)N1c1cccc2ccccc12 recorded_measurement=19.5
chemical_structure=O=C1N/C(=N/c2csc(-c3ccc(Cl)cc3)c2)S/C1=C\c1ccc(Br)cc1 recorded_measurement=0.7
chemical_structure=CN(C)c1ccc(/C=C2\S/C(=N\c3csc(-c4ccc(Cl)cc4)c3)NC2=O)cc1 recorded_measurement=0.8
chemical_structure=COc1ccc(-c2cc(/N=C3\SCC(=O)N3c3cccc(OC)c3)cs2)cc1 recorded_measurement=3.5
chemical_structure=COc1ccc(/C=C2\S/C(=N\c3nc(-c4ccc(Cl)cc4)cs3)NC2=O)cc1 recorded_measurement=0.05
chemical_structure=O=C1N/C(=N/c2nc(-c3ccc(Cl)cc3)cs2)S/C1=C\c1ccc2ccccc2c1 recorded_measurement=20.3

Now consider the entry below.
Give IC50; test system SW-620; compound O=C1N/C(=N/c2csc(-c3ccc(Cl)cc3)c2)S/C1=C\c1ccc(Cl)cc1
4.6
